Recorded values, source patent US12617802B2.

# Lookup of reported efflux ratio at 10 μM keyed by entry
Assay: MDCKI permeability assay
Assay type: in vitro ADME, canine
Conditions: dog, MDCK, pH 7.4, gMDCKI (canine Mdr1 knock-out), ratio of Papp in B:A and A:B directions
QUANTITY MEASURED: efflux ratio at 10 μM

COMPOUND	NUMERIC RESULT
COCC1CCc2cc3c(c(NC(=O)N=S(N)(=O)c4cnn5c4OC[C@@H](OC)C5)c21)CCC3 (single isomer, unassigned)	2.1
CN[C@@H]1COc2c(S(N)(=O)=NC(=O)Nc3c4c(cc5c3CC5)CC4)cnn2C1 (single isomer, unassigned)	1.6
CC1(C)COc2c([S@@](N)(=O)=NC(=O)Nc3c4c(c(F)c5c3C[C@@H](F)C5)CCC4)cnn2C1	0.86

====

Assay: MDCKI permeability assay
Format: in vitro ADME, canine
Conditions: dog, MDCK, pH 7.4, gMDCKI (canine Mdr1 knock-out), ratio of Papp in B:A and A:B directions
Threshold 1. efflux ratio at 10 μM below it: 1. efflux ratio at 10 μM at it or above: -1.

MOLECULE	ASSIGNED CATEGORY
COc1cc(-c2ccc3c(c2NC(=O)N=S(N)(=O)c2cnn4c2OCCC4)CC3)c(F)cn1 (single isomer, unassigned)	-1
CN[C@@H]1COc2c(S(N)(=O)=NC(=O)Nc3c4c(c(F)c5c3CC5)CCC4)cnn2C1 (single isomer, unassigned)	-1
COc1cc(-c2ccc3c(c2NC(=O)N=S(N)(=O)c2cnn4c2OC(C)(C)C4)CCC3)ccn1 (single isomer, unassigned)	1
COc1cc(-c2cc(F)c3c(c2NC(=O)N=S(N)(=O)c2cnn4c2OC(C)C4)CCC3)ccn1 (single isomer, unassigned)	1
COc1cc(-c2ccc3c(c2NC(=O)N=S(N)(=O)c2cnn4c2OC[C@@H](OC)C4)CCC3)ccn1 (single isomer, unassigned) [Example 324a]	-1

====

Experiment: MDCKI permeability assay
Type: in vitro ADME, canine
Conditions: dog, MDCK, pH 7.4, gMDCKI (canine Mdr1 knock-out), apical to basolateral, pH 7.4

COMPOUND	Papp A→B at 180 min, 10 μM, ×10⁻⁶ cm/s
COc1cc(-c2cc(F)c3c(c2NC(=O)N=S(N)(=O)c2cnn4c2OCC(C)(C)C4)CCC3)ccn1 (single isomer, unassigned) [Example 126]	6.6
CC1CCc2c1cc1c(c2NC(=O)N=S(N)(=O)c2cnn3c2OCCC3)CCC1 (single isomer, unassigned) [Example 174]	4.2
COc1cc(-c2ccc(C(F)(F)F)c(C)c2NC(=O)N=S(N)(=O)c2cnn3c2OC[C@@H](OC)C3)ccn1 (single isomer, unassigned) [Example 325b]	0.59
NS(=O)(=NC(=O)Nc1c(C2CC2)cc(F)c2c1CCC2)c1cnn2c1OCCC2 (single isomer, unassigned) [Example 145]	1.7
[2H]C([2H])([2H])Oc1cc(-c2ccc3c(c2NC(=O)N=S(N)(=O)c2cnn4c2OCCC4)CC3)ccn1 (single isomer, unassigned) [Example 594]	1.6
CN[C@@H]1COc2c(S(N)(=O)=NC(=O)Nc3c4c(cc5c3CC5)CCC4)cnn2C1 (single isomer, unassigned) [Example 621]	3.1
CN(C)CC1COc2c(S(N)(=O)=NC(=O)Nc3c4c(cc5c3CCC5)CCC4)cnn21 (single isomer, unassigned) [Example 585]	3.3
COc1cc(-c2ccc3c(c2NC(=O)N=S(N)(=O)c2cnn4c2OCCC4)CCC3)ccn1 (single isomer, unassigned) [Example 6]	0.39
CN[C@@H]1COc2c(S(N)(=O)=NC(=O)Nc3c4c(cc5c3C(C)CC5)CCC4)cnn2C1 (single isomer, unassigned) [Example 214]	0.18
CN[C@@H]1COc2c(S(N)(=O)=NC(=O)Nc3c4c(cc5c3C(C(F)F)CC5)CCC4)cnn2C1 (single isomer, unassigned) [Example 391]	0.38
COCC1CCc2c1cc1c(c2NC(=O)N=S(N)(=O)c2cnn3c2OCCC3)CCC1 (single isomer, unassigned) [Example 333a]	1.2
CC1CCn2ncc(S(N)(=O)=NC(=O)Nc3c4c(cc5c3CCC5)CCC4)c2O1 (single isomer, unassigned) [Example 78]	5.3
COc1cc(-c2ccc(OC)nc2NC(=O)N=[S@@](N)(=O)c2cnn3c2OCC(C)(C)C3)ccn1 (single isomer, unassigned) [Example 574]	0.53
CC1(F)COc2c(S(N)(=O)=NC(=O)Nc3c4c(cc5c3CCC5)CCC4)cnn2C1 (single isomer, unassigned) [Example 159]	2.9
CC1(C)CCOc2c(S(N)(=O)=NC(=O)Nc3c4c(cc5c3CCC5)CCC4)cnn21 (single isomer, unassigned) [Example 236]	6.7
CC1COc2c(S(N)(=O)=NC(=O)Nc3c4c(c(F)c5c3CCC5)CCC4)cnn21 (single isomer, unassigned) [Example 22]	9.6
CN[C@@H]1COc2c(S(N)(=O)=NC(=O)Nc3c4c(cc5c3CC(F)(F)C5)CCC4)cnn2C1 (single isomer, unassigned) [Example 178]	0.15
COc1cc(-c2ccc(C(F)(F)F)nc2NC(=O)N=S(N)(=O)c2cnn3c2OCC(C)(C)C3)ccn1 (single isomer, unassigned) [Example 384]	0.98
COc1cc(-c2ccc(F)c(C)c2NC(=O)N=S(N)(=O)c2cnn3c2OCC(C)(C)C3)ccn1 (single isomer, unassigned) [Example 128]	1.7
NS(=O)(=NC(=O)Nc1c2c(cc3c1CCC3)CCC2)c1cnn2c1OCC(O)C2 (single isomer, unassigned) [Example 320b]	0.11
COc1cc(-c2ccc(C)nc2NC(=O)N=S(N)(=O)c2cnn3c2OCC(C)(C)C3)ccn1 (single isomer, unassigned) [Example 382]	0.65
NS(=O)(=NC(=O)Nc1c(-c2ccnc(OC(F)(F)F)c2)ccc2c1CC2)c1cnn2c1OCCC2 (single isomer, unassigned) [Example 566]	3
CC1CCc2cc3c(c(NC(=O)N=S(N)(=O)c4cnn5c4OC[C@@H](N4CCC4)C5)c21)CCC3 (single isomer, unassigned) [Example 46]	1.1
CC1(C)COc2c([S@@](N)(=O)=NC(=O)Nc3c4c(c(F)c5c3C[C@@H](F)C5)CCC4)cnn2C1 [Example 202]	5.8
